Origin of the recorded values: the supplement of paper PMC9112550

- Test system: Escherichia coli TOP10;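 note: peptides expressed intracellularly from a pBAD plasmid library in pooled LB shake-flask culture, induced with 0.3% L-arabinose, DNA abundance read by NGS, three biological replicates, DESeq2 with apeglm shrinkage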
- ASSAY_OVERVIEW: shrunken log2 fold change of peptide-encoding DNA abundance (4.5 h post-induction vs induction); higher = less antimicrobial activity (less host growth inhibition)
- CONDITION_DESCRIPTION: time post-induction: 4.5 h; library: site-saturation at positions 5, 18, 19, 20
OBSERVED_PROPERTY: shrunken log2 fold change
Lab note: write the figure by itself, no unit.

q: Recorded shrunken log2 fold change for RRIRNRPPRLPRPRPRPTPAPRP , please?
a: 0.713

q: Next up: RRIRDRPPRLPRPRPRPGGEPRP
a: 1.41

q: Next up: RRIRARPPRLPRPRPRPTSLPRP
a: 0.225

q: Next up: RRIRERPPRLPRPRPRPDYEPRP
a: -0.202

q: Next up: RRIRMRPPRLPRPRPRPWRAPRP
a: 0.595

q: Next up: RRIRWRPPRLPRPRPRPWPEPRP
a: 0.167

q: Next up: RRIRHRPPRLPRPRPRPCLWPRP
a: -0.0157

q: Next up: RRIRQRPPRLPRPRPRPSLEPRP
a: 0.0433

q: Next up: RRIRQRPPRLPRPRPRPNGSPRP
a: -0.00154

q: Next up: RRIRRRPPRLPRPRPRPISDPRP
a: 0.136

q: Next up: RRIRERPPRLPRPRPRPIWHPRP
a: -0.0406

q: Next up: RRIRHRPPRLPRPRPRPITAPRP
a: -0.303

q: Next up: RRIRVRPPRLPRPRPRPTHIPRP
a: 0.268

q: Next up: RRIRGRPPRLPRPRPRPWFWPRP
a: 0.6

q: Next up: RRIRFRPPRLPRPRPRPMLFPRP
a: -0.0947

q: Next up: RRIRKRPPRLPRPRPRPKWRPRP
a: 0.887

q: Next up: RRIRFRPPRLPRPRPRPSMLPRP
a: -0.47

q: Next up: RRIRPRPPRLPRPRPRPRMRPRP
a: 0.92

q: Next up: RRIRLRPPRLPRPRPRPMVLPRP
a: -0.239

q: Next up: RRIRYRPPRLPRPRPRPQPYPRP
a: -0.649

q: Next up: RRIRDRPPRLPRPRPRPPHVPRP
a: 0.0772

q: Next up: RRIRTRPPRLPRPRPRPQQNPRP
a: -0.0459

q: Next up: RRIRWRPPRLPRPRPRPEDPPRP
a: 0.157

q: Next up: RRIRNRPPRLPRPRPRPPTIPRP
a: 0.244

q: Next up: RRIRTRPPRLPRPRPRPIHFPRP
a: -0.00174

q: Next up: RRIRIRPPRLPRPRPRPGNNPRP
a: -0.00577

q: Next up: RRIRVRPPRLPRPRPRPTSFPRP
a: -0.0728

q: Next up: RRIRVRPPRLPRPRPRPCNFPRP
a: -0.0271

q: Next up: RRIRWRPPRLPRPRPRPLIYPRP
a: -0.299

q: Next up: RRIRVRPPRLPRPRPRPFTWPRP
a: -0.327

q: Next up: RRIRCRPPRLPRPRPRPFLRPRP
a: -0.0477

q: Next up: RRIRGRPPRLPRPRPRPITCPRP
a: -0.00623
